These entries and their values trace back to ChEMBL document CHEMBL5523766.

TARGET_OR_SYSTEM: CYP1A2 (Homo sapiens, UniProt P05177)
Sequence (P05177 whole entry): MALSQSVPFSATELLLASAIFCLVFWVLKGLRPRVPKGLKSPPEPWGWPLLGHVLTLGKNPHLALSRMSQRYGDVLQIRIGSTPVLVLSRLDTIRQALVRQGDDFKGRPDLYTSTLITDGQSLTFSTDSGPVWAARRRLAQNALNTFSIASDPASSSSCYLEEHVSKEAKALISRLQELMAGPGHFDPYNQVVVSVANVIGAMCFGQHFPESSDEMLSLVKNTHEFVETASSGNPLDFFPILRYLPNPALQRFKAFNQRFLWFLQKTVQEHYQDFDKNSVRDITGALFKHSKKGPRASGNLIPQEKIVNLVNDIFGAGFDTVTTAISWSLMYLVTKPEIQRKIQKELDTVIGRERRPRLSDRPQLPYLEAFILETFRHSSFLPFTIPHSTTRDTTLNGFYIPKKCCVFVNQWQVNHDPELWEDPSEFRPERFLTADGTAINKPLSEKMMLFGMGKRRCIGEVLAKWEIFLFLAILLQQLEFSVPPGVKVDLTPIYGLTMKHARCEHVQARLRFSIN
PROTOCOL_DESCRIPTION: Time dependent inhibition of CYP1A2 (unknown origin) at 10 uM relative to control
Format: ADME
SETTINGS: read-out: TDI
Listed here: items and their measured inhibition at 10 µM.
Provide the reading as a plain figure in %.

{"CPD_SMILES": "C[C@@H]1COCCN1c1nc(-c2cncc3[nH]ccc23)nc2c1ccn2S(C)(=O)=O", "UNIT_TAG": "%", "inhibition at 10 µM": 28.6}

Determine its reported inhibition at 10 µM: `C[C@@H]1COCCN1c1nc(-c2ccnc3[nH]ccc23)nc2c1ccn2S(C)(=O)=O`
37.5

* * *

PROTOCOL_DESCRIPTION: Apparent permeability across basolateral to apical side in dog MDCK-MDR1 cells
Format: ADME, cell-based, Canis lupus familiaris
VALUE_KIND: Papp B→A (×10⁻⁶ cm/s)
Provide the reading as a plain figure in ×10⁻⁶ cm/s.

{"CPD_SMILES": "C[C@@H]1COCCN1c1nc(-c2cncc3[nH]ccc23)nc2c1ccn2S(C)(=O)=O", "UNIT_TAG": "×10⁻⁶ cm/s", "Papp B→A": 29}

Determine its reported Papp B→A: `C[C@@H]1COCCN1c1nc(-c2ccnc3[nH]ccc23)nc2c1ccn2S(C)(=O)=O`
51.2

* * *

PROTOCOL_DESCRIPTION: Cmax in ICR mouse at 50 mg/kg,po measured upto 24 hrs by LC-MS/MS analysis
Type: ADME, organism-based
SETTINGS: in vivo
VALUE_KIND: Cmax (ng/mL)
Provide the reading as a plain figure in ng/mL.

{"CPD_SMILES": "C[C@@H]1COCCN1c1nc(-c2cncc3[nH]ccc23)nc2c1ccn2S(C)(=O)=O", "Cmax, ng/mL": 18900}

Now look at this one.
Determine its reported Cmax: `C[C@@H]1COCCN1c1nc(-c2ccnc3[nH]ccc23)nc2c1ccn2S(C)(=O)=O`
19800

* * *

PROTOCOL_DESCRIPTION: Cmax in BALB/c mouse at 75 mg/kg,po measured upto 24 hrs by LC-MS/MS analysis
Type: ADME, organism-based
SETTINGS: in vivo
VALUE_KIND: Cmax (ng/mL)
Provide the reading as a plain figure in ng/mL.

Determine its reported Cmax: `C[C@@H]1COCCN1c1cc(C2([S@](C)(=N)=O)CC2)nc(-c2cc[nH]c3nccc2-3)n1`
12000

* * *

PROTOCOL_DESCRIPTION: Half life in ICR mouse at 50 mg/kg,po measured upto 24 hrs by LC-MS/MS analysis
Type: ADME, organism-based
SETTINGS: in vivo
VALUE_KIND: half-life (h)
Provide the reading as a plain figure in h.

{"CPD_SMILES": "C[C@@H]1COCCN1c1nc(-c2ccnc3[nH]ccc23)nc2c1ccn2S(C)(=O)=O", "NUMERIC_RESULT": 2.29}

Now look at this one.
Determine its reported half-life: `C[C@@H]1COCCN1c1nc(-c2cncc3[nH]ccc23)nc2c1ccn2S(C)(=O)=O`
2.01

* * *

PROTOCOL_DESCRIPTION: Efflux ratio of apparent permeability across […] side in human Caco-2 cells
Type: ADME, cell-based
VALUE_KIND: efflux ratio
Lab note: record just the number, no unit beside it.

Determine its reported efflux ratio: `C[C@@H]1COCCN1c1nc(-c2cncc3[nH]ccc23)nc2c1ccn2S(C)(=O)=O`
1.41
